System Name: UniProtKB P08183
Assay Details: Stimulation of P-gp in human multidrug resistant NCI-H460/R cells assessed as fluorescence activity ratio at 5 uM for 72 mins by Rho123 accumulation assay relative to control
Protocol Conditions: nci-h460, 1.2 h
Measured Endpoint: Ratio
Answer field: number only, no words.

Please supply the value of reported Ratio for the item CC(C)C1=C(O)C(=O)[C@@]23O[C@@]2(C(=O)C(O)=C2C(C)(C)CCC[C@@]23C)C1=O 0.36

Please supply the value of reported Ratio for the item CC(C)c1cc2c(c(O)c1O)[C@@]1(O)CCCC(C)(C)[C@@H]1C(=O)C2=O 0.33

Please supply the value of reported Ratio for the item CC(C)c1c(O)c(O)c2c(c1O)C(=O)C(O)=C1C(C)(C)CCC[C@@]12C 0.21

Please supply the value of reported Ratio for the item CC(C)C1=C(O)C(=O)C2=C(C(=O)C(O)=C3C(C)(C)CCC[C@]23C)C1=O 0.34

* * *

Assay Details: Selectivity index, ratio of IC50 for cytotoxicity against human MRC-5 cells to of IC50 for anticancer activity against human NCI-H460 cells
Format: toxicity, cell-based
Protocol Conditions: MRC-5 cells versus NCI-H460 cells, read-out: Ratio IC50
Measured Endpoint: selectivity ratio

Please supply the value of reported selectivity ratio for the item CC(C)C1=C(O)C(=O)[C@@]23O[C@@]2(C(=O)C(O)=C2C(C)(C)CCC[C@@]23C)C1=O 2

Please supply the value of reported selectivity ratio for the item CC(=O)O[C@H]1C(=O)[C@@]2(C)[C@H]([C@H](OC(=O)c3ccccc3)[C@]3(O)C[C@H](OC(=O)[C@H](O)[C@@H](NC(=O)c4ccccc4)c4ccccc4)C(C)=C1C3(C)C)[C@]1(OC(C)=O)CO[C@@H]1C[C@@H]2O 872

Please supply the value of reported selectivity ratio for the item CC(C)C1=C(O)C(=O)C2=C(C(=O)C(O)=C3C(C)(C)CCC[C@]23C)C1=O 2

Please supply the value of reported selectivity ratio for the item CC(C)c1c(O)c(O)c2c(c1O)C(=O)C(O)=C1C(C)(C)CCC[C@@]12C 2.5

* * *

System Name: ATP-dependent translocase ABCB1 (Homo sapiens, UniProt P08183)
Sequence (P08183 whole entry): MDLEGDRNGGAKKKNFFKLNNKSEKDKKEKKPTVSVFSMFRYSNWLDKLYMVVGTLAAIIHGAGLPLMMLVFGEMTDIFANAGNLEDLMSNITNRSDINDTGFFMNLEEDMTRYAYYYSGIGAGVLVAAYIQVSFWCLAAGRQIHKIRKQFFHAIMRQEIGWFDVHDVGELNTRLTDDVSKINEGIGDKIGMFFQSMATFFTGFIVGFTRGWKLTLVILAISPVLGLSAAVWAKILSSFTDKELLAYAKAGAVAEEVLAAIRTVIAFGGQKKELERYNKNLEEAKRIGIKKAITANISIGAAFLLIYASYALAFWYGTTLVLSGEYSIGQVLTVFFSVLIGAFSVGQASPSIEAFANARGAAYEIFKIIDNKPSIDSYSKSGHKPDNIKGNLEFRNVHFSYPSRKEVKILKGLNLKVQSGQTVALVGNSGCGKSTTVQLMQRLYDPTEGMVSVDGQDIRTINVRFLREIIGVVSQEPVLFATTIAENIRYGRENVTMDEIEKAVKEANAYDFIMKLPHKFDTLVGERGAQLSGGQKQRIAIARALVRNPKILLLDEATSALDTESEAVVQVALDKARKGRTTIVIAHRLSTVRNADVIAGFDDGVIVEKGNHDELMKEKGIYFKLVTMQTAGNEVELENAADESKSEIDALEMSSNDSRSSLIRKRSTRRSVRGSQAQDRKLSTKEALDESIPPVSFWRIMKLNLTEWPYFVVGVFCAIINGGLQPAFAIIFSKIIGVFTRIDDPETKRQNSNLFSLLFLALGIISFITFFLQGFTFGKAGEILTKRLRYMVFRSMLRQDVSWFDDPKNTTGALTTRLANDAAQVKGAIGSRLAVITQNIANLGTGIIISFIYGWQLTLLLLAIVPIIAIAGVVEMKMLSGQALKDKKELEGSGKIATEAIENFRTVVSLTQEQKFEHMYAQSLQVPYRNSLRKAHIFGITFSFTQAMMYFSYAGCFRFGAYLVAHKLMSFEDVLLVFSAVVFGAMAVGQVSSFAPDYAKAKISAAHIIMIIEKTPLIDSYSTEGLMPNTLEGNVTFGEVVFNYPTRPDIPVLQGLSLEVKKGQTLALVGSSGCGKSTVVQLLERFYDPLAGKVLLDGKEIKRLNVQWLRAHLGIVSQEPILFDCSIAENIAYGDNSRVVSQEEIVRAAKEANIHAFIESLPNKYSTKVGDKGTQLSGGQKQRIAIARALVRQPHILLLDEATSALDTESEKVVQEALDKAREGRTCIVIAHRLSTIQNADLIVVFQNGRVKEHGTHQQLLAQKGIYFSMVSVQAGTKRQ
Assay Details: Stimulation of P-gp in human multidrug resistant NCI-H460/R cells assessed as decrease in Rho123 accumulation by measuring mean fluorescence intensity at 10 uM incubated for 72 hrs followed by rhodamine 123 measured after 30 mins by flow cytometry
Protocol Conditions: nci-h460, 72.5 h
For each record, write down the corresponding Flu intensity.

Please supply the value of reported Flu intensity for the item CC(C)c1c(O)c(O)c2c(c1O)C(=O)C(O)=C1C(C)(C)CCC[C@@]12C 109.7

Please supply the value of reported Flu intensity for the item CC(C)C1=C(O)C(=O)C2=C(C(=O)C(O)=C3C(C)(C)CCC[C@]23C)C1=O 242

Please supply the value of reported Flu intensity for the item CC(C)c1cc2c(c(O)c1O)[C@@]1(O)CCCC(C)(C)[C@@H]1C(=O)C2=O 254.5

Please supply the value of reported Flu intensity for the item CC(C)C1=C(O)C(=O)[C@@]23O[C@@]2(C(=O)C(O)=C2C(C)(C)CCC[C@@]23C)C1=O 276.6

Value source: ChEMBL document CHEMBL5036376
